src = ChEMBL document CHEMBL1132035

target: Nitric oxide synthase, inducible (Mus musculus); assay: Inhibition of purified mouse inducible nitric oxide synthase catalyzed [14C]L-citrulline production at a compound concentration of 1 mM in presence of 50 uM L-arginine
Sequence (P29477 whole entry): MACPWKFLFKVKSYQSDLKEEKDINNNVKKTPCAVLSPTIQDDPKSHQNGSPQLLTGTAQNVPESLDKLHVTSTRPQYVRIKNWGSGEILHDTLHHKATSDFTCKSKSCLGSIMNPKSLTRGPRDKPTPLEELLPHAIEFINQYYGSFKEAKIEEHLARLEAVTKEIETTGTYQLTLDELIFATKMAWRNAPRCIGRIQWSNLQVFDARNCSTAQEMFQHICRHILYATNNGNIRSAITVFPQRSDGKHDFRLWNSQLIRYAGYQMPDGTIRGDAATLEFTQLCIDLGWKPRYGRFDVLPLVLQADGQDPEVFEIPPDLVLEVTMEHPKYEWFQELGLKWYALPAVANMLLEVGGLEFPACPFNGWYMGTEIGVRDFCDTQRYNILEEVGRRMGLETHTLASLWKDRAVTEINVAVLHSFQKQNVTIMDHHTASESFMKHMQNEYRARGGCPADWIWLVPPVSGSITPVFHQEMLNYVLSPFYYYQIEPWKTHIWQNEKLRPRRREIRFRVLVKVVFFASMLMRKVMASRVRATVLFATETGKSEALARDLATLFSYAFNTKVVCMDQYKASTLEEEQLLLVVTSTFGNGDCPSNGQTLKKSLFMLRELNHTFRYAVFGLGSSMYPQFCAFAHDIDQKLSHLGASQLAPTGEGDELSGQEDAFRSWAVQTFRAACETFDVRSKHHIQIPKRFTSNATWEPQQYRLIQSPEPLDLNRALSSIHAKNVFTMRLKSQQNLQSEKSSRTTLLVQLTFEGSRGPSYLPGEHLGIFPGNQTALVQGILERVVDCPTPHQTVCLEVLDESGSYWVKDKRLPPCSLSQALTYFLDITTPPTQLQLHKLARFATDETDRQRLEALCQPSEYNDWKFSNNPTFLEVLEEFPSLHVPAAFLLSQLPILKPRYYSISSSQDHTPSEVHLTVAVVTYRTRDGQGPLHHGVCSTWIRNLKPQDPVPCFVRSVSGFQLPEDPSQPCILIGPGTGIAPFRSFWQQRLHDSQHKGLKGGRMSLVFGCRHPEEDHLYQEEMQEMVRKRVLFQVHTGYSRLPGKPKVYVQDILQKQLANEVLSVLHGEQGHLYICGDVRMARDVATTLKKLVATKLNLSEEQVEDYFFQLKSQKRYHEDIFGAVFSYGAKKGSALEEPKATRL
For each record, write down the corresponding IC50.
Numbers only, in µM.

Your task in this section: give IC50 for each listed record.
1. c1c[nH]cn1
2. N=C(N)NCc1ncc[nH]1

Given back:
1: 40; 2: 138

====

molecular target: Nitric oxide synthase 1 (Rattus norvegicus, UniProt P29476); assay: Inhibition of rat neuronal nitric oxide synthase catalyzed [14C]L-citrulline production at a compound concentration of 1 mM in presence of 50 uM L-arginine
Sequence (P29476 whole entry): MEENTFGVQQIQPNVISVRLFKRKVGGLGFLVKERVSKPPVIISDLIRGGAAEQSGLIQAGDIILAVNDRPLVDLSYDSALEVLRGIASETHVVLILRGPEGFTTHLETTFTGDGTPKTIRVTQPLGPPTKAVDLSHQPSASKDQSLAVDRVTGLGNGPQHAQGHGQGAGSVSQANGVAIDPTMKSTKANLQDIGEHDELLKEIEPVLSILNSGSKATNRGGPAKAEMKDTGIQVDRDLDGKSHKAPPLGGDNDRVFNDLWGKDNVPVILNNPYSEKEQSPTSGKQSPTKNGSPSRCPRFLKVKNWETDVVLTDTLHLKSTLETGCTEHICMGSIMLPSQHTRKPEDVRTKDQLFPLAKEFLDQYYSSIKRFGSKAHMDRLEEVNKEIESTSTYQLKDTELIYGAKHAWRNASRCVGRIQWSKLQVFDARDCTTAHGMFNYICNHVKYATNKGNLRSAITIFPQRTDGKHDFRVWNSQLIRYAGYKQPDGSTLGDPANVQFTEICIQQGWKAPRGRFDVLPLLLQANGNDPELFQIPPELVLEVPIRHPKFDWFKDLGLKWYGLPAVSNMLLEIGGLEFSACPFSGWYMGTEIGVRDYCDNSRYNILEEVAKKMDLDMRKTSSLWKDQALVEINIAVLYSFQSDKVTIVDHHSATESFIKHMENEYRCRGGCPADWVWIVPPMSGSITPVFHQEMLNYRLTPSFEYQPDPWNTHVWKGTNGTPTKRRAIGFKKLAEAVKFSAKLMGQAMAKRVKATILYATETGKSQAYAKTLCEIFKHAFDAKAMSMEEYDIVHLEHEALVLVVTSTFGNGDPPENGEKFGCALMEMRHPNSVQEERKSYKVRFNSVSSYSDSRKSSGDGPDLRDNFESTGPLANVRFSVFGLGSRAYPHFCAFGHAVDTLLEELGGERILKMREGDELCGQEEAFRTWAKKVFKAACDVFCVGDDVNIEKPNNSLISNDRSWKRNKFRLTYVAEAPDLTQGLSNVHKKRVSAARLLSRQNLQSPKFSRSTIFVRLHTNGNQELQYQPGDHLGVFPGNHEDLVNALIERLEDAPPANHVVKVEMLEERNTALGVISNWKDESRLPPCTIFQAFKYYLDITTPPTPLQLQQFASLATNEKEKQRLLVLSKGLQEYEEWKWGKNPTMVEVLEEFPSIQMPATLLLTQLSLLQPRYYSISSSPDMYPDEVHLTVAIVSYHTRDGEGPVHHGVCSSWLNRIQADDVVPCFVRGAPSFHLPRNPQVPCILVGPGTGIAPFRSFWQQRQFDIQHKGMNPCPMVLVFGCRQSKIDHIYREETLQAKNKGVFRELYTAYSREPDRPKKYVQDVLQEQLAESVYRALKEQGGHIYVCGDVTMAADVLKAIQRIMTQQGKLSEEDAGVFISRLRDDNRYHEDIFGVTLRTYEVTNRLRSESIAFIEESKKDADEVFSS
MEASURED PROPERTY: pIC50
Answers are plain numbers, as −log10 of the molar value.

molecular_string=N/C(=N\CCC[C@@H](N)C(=O)O)NCCc1ncc[nH]1 assayed_system="Nitric oxide synthase 1 (Rattus norvegicus, UniProt P29476)" measured_value=2.83

Continue with the next compound.
Asked: Entry N/C(=N\CCC[C@@H](N)C(=O)O)NCc1ncc[nH]1 , system Nitric oxide synthase 1 (Rattus norvegicus, UniProt P29476): what pIC50 was measured?
Given back: 2.80
